This collection of values is drawn from ChEMBL document CHEMBL1938268.

System: Aspergillus oryzae
method: Antifungal activity against Aspergillus oryzae NCIM 643 after 48 hrs by agar well diffusion assay
Format: functional
assay-setup: NCIM 643, 48 h
experimental-endpoint: MIC (µg/mL)
Give bare numbers, in µg/mL.

// below: answered compounds
- compound: "CC(=O)N1CCN(c2ccc(OCC3COC(Cn4ccnc4)(c4ccc(Cl)cc4Cl)O3)cc2)CC1 (centres undefined)"
  target-or-test-system: "Aspergillus oryzae"
  numeric-readout: 16
- compound: "Cc1ccc(S(=O)(=O)NC(=O)Nc2ccccc2C(=O)/C=C/c2cccc(O)c2)cc1"
  target-or-test-system: "Aspergillus oryzae"
  numeric-readout: 512
- compound: "Cc1ccc(S(=O)(=O)NC(=O)Nc2ccccc2C(=O)/C=C/c2cc(O)ccc2[N+](=O)[O-])cc1"
  target-or-test-system: "Aspergillus oryzae"
  numeric-readout: 64

Q: Consider the compound shown here: Cc1ccc(S(=O)(=O)NC(=O)Nc2ccccc2C(=O)/C=C/C=C/c2ccccc2)cc1 What is its recorded MIC?
Result: 256

----------
Test system: Penicillium chrysogenum
method: Antifungal activity against Penicillium chrysogenum NCIM 738 after 48 hrs by agar well diffusion assay
Type: functional
assay-setup: NCIM 738, 48 h
Kindly supply the reported log10(MIC) values for the records listed here.
Friendly reminder: values = log10 of MIC, unit µg/mL.

Lab note: each molecule below needs its log10(MIC) filled in.
1. C=CCOc1ccc(/C=C/C(=O)c2ccccc2NC(=O)NS(=O)(=O)c2ccc(C)cc2)cc1
2. Cc1ccc(S(=O)(=O)NC(=O)Nc2ccccc2C(=O)/C=C/C=C/c2ccccc2)cc1
3. Cc1ccc(S(=O)(=O)NC(=O)Nc2ccccc2C(=O)/C=C/c2cccc(Br)c2)cc1
4. Cc1ccc(S(=O)(=O)NC(=O)Nc2ccccc2C(=O)/C=C/c2ccccc2Cl)cc1
5. Cc1ccc(S(=O)(=O)NC(=O)Nc2ccccc2C(=O)/C=C/c2cccc(F)c2)cc1

Result:
[1.20, 2.41, 2.11, 2.11, 1.81]

Please give log10(MIC), item by item, for the list that follows.
1. Cc1ccc(S(=O)(=O)NC(=O)Nc2ccccc2C(=O)/C=C/c2ccccc2)cc1
2. Cc1ccc(S(=O)(=O)NC(=O)Nc2ccccc2C(=O)/C=C/c2ccncc2)cc1
3. COc1ccc(/C=C/C(=O)c2ccccc2NC(=O)NS(=O)(=O)c2ccc(C)cc2)cc1OC
4. Cc1ccc(S(=O)(=O)NC(=O)Nc2ccccc2C(=O)/C=C/c2ccc[nH]2)cc1
5. Cc1ccc(S(=O)(=O)NC(=O)Nc2ccccc2C(=O)/C=C/c2cccnc2)cc1

Result:
1: 2.71; 2: 1.81; 3: 2.11; 4: 2.41; 5: 2.11

----------
Kindly supply the reported MIC values for the records listed here.
Test system: Aspergillus oryzae
method: Antifungal activity against Aspergillus oryzae NCIM 643 after 48 hrs by agar well diffusion assay
Assay type: functional
assay-setup: NCIM 643, 48 h
Numbers only, in µg/mL.

These solved cases illustrate the format of a correct answer.
- line-notation: "Cc1ccc(S(=O)(=O)NC(=O)Nc2ccccc2C(=O)/C=C/c2ccc(Cl)cc2Cl)cc1"
  MIC [µg/mL]: 64
- line-notation: "Cc1ccc(S(=O)(=O)NC(=O)Nc2ccccc2C(=O)/C=C/c2ccc(O)cc2)cc1"
  MIC [µg/mL]: 128
- line-notation: "Cc1ccc(/C=C/C(=O)c2ccccc2NC(=O)NS(=O)(=O)c2ccc(C)cc2)cc1"
  MIC [µg/mL]: 256
- line-notation: "COc1cccc(/C=C/C(=O)c2ccccc2NC(=O)NS(=O)(=O)c2ccc(C)cc2)c1"
  MIC [µg/mL]: 128

Proceed to the following item.
Q: If you can, please state the reported MIC value of Cc1ccc(S(=O)(=O)NC(=O)Nc2ccccc2C(=O)/C=C/c2ccccc2Cl)cc1 .
Result: 128
